# pEC50 per entry for Histamine H1 receptor (Homo sapiens)
One number for each entry, as −log10 of the molar value.

Answered examples (2):
Identify pEC50 associated with the molecule "NCCc1c[nH]c(-c2ccc(Cl)c(Cl)c2)n1" 4.30

Please report pEC50 for the following molecule: "NCCc1c[nH]c(-c2cccc(Cl)c2)n1" 5.70

// switching to the query molecule
// fetch pEC50 given entry "NCCc1cnc(-c2cccc(C(F)(F)F)c2)[nH]1" 6.00

###

Would you kindly list Alpha for each of these molecules?
Biological target: Histamine H1 receptor (Homo sapiens)
One number for each entry.

Report the value of Alpha obtained on Histamine H1 receptor (Homo sapiens) for "NCCc1ccccn1" . 1.11

Fetch value of Alpha on Histamine H1 receptor (Homo sapiens) for "NCCc1c[nH]c(CCC(c2ccccc2)c2ccccc2)n1" . 0.69

# assay system Histamine H1 receptor (Homo sapiens): give Alpha of "c1nc(CCCCCCCCCCN2CCCC2)c[nH]1" -0.61

// for each molecule below, give its Alpha
1. NCCCCCCCCc1c[nH]cn1
2. NCCc1c[nH]c(CCCCC(c2ccccc2)c2ccccc2)n1
3. NCCc1c[nH]c(-c2cccc(C(F)(F)F)c2)n1
4. NCCCCCCCCCCCCc1cccnc1
5. NCCc1c[nH]c(CCCC(c2ccccc2)c2ccccc2)n1
6. NCCCCCCCCCc1ccccn1
7. NCCCCCCCCCCCc1c[nH]cn1

-0.54
-0.09
0.91
-0.78
0.02
-0.92
-0.61

###

The following are reported Alpha results, target or system Histamine H1 receptor (Homo sapiens, UniProt P35367).
One number for each entry.

Some entries whose results are on file:
Give a short answer stating reported Alpha for "NCCCCCCCCCCCCc1c[nH]cn1" . -0.62

Provide only the value of recorded Alpha for "NCCCCCCCCCCCCCCc1c[nH]cn1" -0.9

Give the reported value of Alpha for this record: CN(C)CCN(Cc1ccccc1)c1ccccn1 [TRIPELENNAMINE] -0.84

For every item below, please supply its Alpha.
1. NCCCCCCCCCCCCc1ccncc1
2. NCCCCCCCCCc1c[nH]cn1
3. NCCc1c[nH]c(-c2ccc(Cl)c(Cl)c2)n1
4. NCCCCCCCCCCc1cccnc1
5. NCCc1c[nH]cn1

-0.67
-0.72
0.5
-0.76
1

Kindly give each listed record's Alpha.
1. NCCc1c[nH]c(-c2cccc(Cl)c2)n1
2. NCCCCCCCCCCCCCc1c[nH]cn1

[1.28, -0.84]

###

# Histamine H1 receptor (Homo sapiens, UniProt P35367): pIC50 values follow
# Sequence (P35367 whole entry): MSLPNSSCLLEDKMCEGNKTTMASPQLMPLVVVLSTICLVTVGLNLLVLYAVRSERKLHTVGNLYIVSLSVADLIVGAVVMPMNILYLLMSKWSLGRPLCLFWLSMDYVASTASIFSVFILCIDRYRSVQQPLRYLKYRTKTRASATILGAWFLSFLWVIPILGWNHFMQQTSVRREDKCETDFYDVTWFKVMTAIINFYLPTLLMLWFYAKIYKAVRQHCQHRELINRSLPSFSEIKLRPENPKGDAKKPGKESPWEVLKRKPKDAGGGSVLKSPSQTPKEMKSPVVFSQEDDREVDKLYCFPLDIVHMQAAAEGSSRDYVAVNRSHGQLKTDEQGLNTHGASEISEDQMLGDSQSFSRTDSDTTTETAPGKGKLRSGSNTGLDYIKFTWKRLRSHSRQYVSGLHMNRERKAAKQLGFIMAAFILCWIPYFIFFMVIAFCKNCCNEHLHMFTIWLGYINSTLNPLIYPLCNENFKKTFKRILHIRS
One number for each entry, as −log10 of the molar value.

Specify reported pIC50 for the compound shown: "NCCc1ccccn1" 5.90

Hey, quick one: what's pIC50 for each of these?
1. NCCCCCCCCCCc1ccncc1
2. NCCCCCCCCCCCCc1c[nH]cn1
3. NCCCCCCCCCCCCCCc1cnc[nH]1
4. NCCCCCCCCCCCCc1cccnc1
5. NCCc1cnc(CCC(c2ccccc2)c2ccccc2)[nH]1

1: 5.60; 2: 6.00; 3: 5.70; 4: 5.90; 5: 6.10

Determine from records and report pIC50 for "c1nc(CCCCCCCCCCCCN2CCCC2)c[nH]1" 5.40

###

Below are Alpha values measured for Histamine H1 receptor (Homo sapiens).
Give bare numbers.

Below are 2 compounds. Give each one its Alpha.
1. NCCCCCCCCCCc1c[nH]cn1
2. c1nc(CCCCCCCCN2CCCC2)c[nH]1

1. -0.54
2. -0.99

Provide each entry's Alpha from the list below.
1. c1nc(CCCCCCCCCCCCN2CCCC2)c[nH]1
2. NCCCCCCCCCCc1ccncc1

1. -0.46
2. -1

Reference source for all entries: ChEMBL document CHEMBL1145948
